B1: library; numbered along this chain (parent)
chain: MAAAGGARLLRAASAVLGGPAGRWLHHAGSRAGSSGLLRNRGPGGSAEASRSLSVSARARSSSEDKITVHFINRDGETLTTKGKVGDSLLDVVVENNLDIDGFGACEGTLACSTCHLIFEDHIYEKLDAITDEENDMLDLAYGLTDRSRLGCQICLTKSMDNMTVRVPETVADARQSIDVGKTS

- Variants of: B1
- protocolDetails: scaled log2 fold change in cell abundance, elesclomol vs control (0 = silent mean, 1 = nonsense mean) (scaled log2 ratio); higher = higher viability under elesclomol (loss of FDX1 cuproptosis function);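 also: variant abundance is its share of total variant reads in each endpoint sample, from next-generation sequencing of the integrated ORF PCR-amplified out of genomic DNA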
- assayContext: with ABC1 FDX1 KO; elesclomol 5 nM; glucose 10 mM; 14 days
endpointLabel: scaled log2 fold change
Give a plain numeric answer without units written out.

IN: Entry T145W : reported scaled log2 fold change = ?
OUT: 0.478

IN: Entry V165Q : reported scaled log2 fold change = ?
OUT: 1.06

IN: Entry D128V : reported scaled log2 fold change = ?
OUT: 0.419

IN: Entry E77C : reported scaled log2 fold change = ?
OUT: -0.00193

IN: Entry N73Y : reported scaled log2 fold change = ?
OUT: 0.218

IN: Entry C106L : reported scaled log2 fold change = ?
OUT: 1.09

IN: Entry L90K : reported scaled log2 fold change = ?
OUT: 0.0261

IN: Entry R60A : reported scaled log2 fold change = ?
OUT: 0.137

IN: Entry K84E : reported scaled log2 fold change = ?
OUT: 0.218

IN: Entry S34G : reported scaled log2 fold change = ?
OUT: 0.285

IN: Entry L110P : reported scaled log2 fold change = ?
OUT: 0.33

IN: Entry G36Y : reported scaled log2 fold change = ?
OUT: 0.0493

IN: Entry V16R : reported scaled log2 fold change = ?
OUT: -0.0133

IN: Entry H26L : reported scaled log2 fold change = ?
OUT: 0.346

IN: Entry L89N : reported scaled log2 fold change = ?
OUT: 1.2

IN: Entry A12S : reported scaled log2 fold change = ?
OUT: 0.0823

IN: Entry F71L : reported scaled log2 fold change = ?
OUT: -0.0155

IN: Entry R166E : reported scaled log2 fold change = ?
OUT: -0.677

IN: Entry T164K : reported scaled log2 fold change = ?
OUT: -0.0707

IN: Entry N97Y : reported scaled log2 fold change = ?
OUT: -0.364

IN: Entry I72V : reported scaled log2 fold change = ?
OUT: -0.116

IN: Entry K66E : reported scaled log2 fold change = ?
OUT: -0.297

IN: Entry N135K : reported scaled log2 fold change = ?
OUT: -0.148

IN: Entry T183R : reported scaled log2 fold change = ?
OUT: 0.102

IN: Entry R166F : reported scaled log2 fold change = ?
OUT: -0.233

IN: Entry L98M : reported scaled log2 fold change = ?
OUT: 0.0485

IN: Entry Q153T : reported scaled log2 fold change = ?
OUT: 0.212

IN: Entry E77H : reported scaled log2 fold change = ?
OUT: -0.0496

IN: Entry D65L : reported scaled log2 fold change = ?
OUT: 0.175

IN: Entry N162G : reported scaled log2 fold change = ?
OUT: -0.601

IN: Entry E64R : reported scaled log2 fold change = ?
OUT: -0.913

IN: Entry A7N : reported scaled log2 fold change = ?
OUT: -0.22

IN: Entry M160S : reported scaled log2 fold change = ?
OUT: 0.278

IN: Entry L37H : reported scaled log2 fold change = ?
OUT: -0.125

IN: Entry R11S : reported scaled log2 fold change = ?
OUT: 0.406

IN: Entry A57Y : reported scaled log2 fold change = ?
OUT: -0.233

IN: Entry D146R : reported scaled log2 fold change = ?
OUT: -0.0353

IN: Entry T183Q : reported scaled log2 fold change = ?
OUT: -0.0766

IN: Entry A3N : reported scaled log2 fold change = ?
OUT: -0.349

IN: Entry V167L : reported scaled log2 fold change = ?
OUT: -0.207

IN: Entry T131F : reported scaled log2 fold change = ?
OUT: -1.03

IN: Entry I154V : reported scaled log2 fold change = ?
OUT: -0.0239

IN: Entry G18A : reported scaled log2 fold change = ?
OUT: -0.164

IN: Entry V180F : reported scaled log2 fold change = ?
OUT: 0.0635

IN: Entry L144R : reported scaled log2 fold change = ?
OUT: 0.343

IN: Entry Y142I : reported scaled log2 fold change = ?
OUT: -0.441

IN: Entry D173W : reported scaled log2 fold change = ?
OUT: -0.0293

IN: Entry F103E : reported scaled log2 fold change = ?
OUT: 0.983

IN: Entry L53G : reported scaled log2 fold change = ?
OUT: -0.239

IN: Entry S34C : reported scaled log2 fold change = ?
OUT: 0.0357

IN: Entry W24I : reported scaled log2 fold change = ?
OUT: -0.0623

IN: Entry G143C : reported scaled log2 fold change = ?
OUT: -0.043

IN: Entry G45F : reported scaled log2 fold change = ?
OUT: -0.17

IN: Entry T157A : reported scaled log2 fold change = ?
OUT: 0.304

IN: Entry C115Q : reported scaled log2 fold change = ?
OUT: 0.93

IN: Entry L17W : reported scaled log2 fold change = ?
OUT: 0.321

IN: Entry G6Y : reported scaled log2 fold change = ?
OUT: -0.0292

IN: Entry A15T : reported scaled log2 fold change = ?
OUT: 0.322

IN: Entry V92I : reported scaled log2 fold change = ?
OUT: -0.0115

IN: Entry H116E : reported scaled log2 fold change = ?
OUT: -0.124

IN: Entry L25K : reported scaled log2 fold change = ?
OUT: 0.14

IN: Entry R149N : reported scaled log2 fold change = ?
OUT: 1

IN: Entry V180H : reported scaled log2 fold change = ?
OUT: -0.37

IN: Entry V16M : reported scaled log2 fold change = ?
OUT: 0.215

IN: Entry D132K : reported scaled log2 fold change = ?
OUT: -0.0835

IN: Entry K158S : reported scaled log2 fold change = ?
OUT: 0.23

IN: Entry V55G : reported scaled log2 fold change = ?
OUT: 0.169

IN: Entry P43C : reported scaled log2 fold change = ?
OUT: -0.0655

IN: Entry T80S : reported scaled log2 fold change = ?
OUT: -0.407

IN: Entry L156K : reported scaled log2 fold change = ?
OUT: 1.05

IN: Entry E107R : reported scaled log2 fold change = ?
OUT: -1.12

IN: Entry L25E : reported scaled log2 fold change = ?
OUT: -0.135

IN: Entry R74C : reported scaled log2 fold change = ?
OUT: 0.324

IN: Entry V180D : reported scaled log2 fold change = ?
OUT: 0.293

IN: Entry A2Y : reported scaled log2 fold change = ?
OUT: -0.115

IN: Entry R60G : reported scaled log2 fold change = ?
OUT: -0.278

IN: Entry D136W : reported scaled log2 fold change = ?
OUT: 0.188

IN: Entry D179R : reported scaled log2 fold change = ?
OUT: 0.498

IN: Entry I72N : reported scaled log2 fold change = ?
OUT: 0.0538

IN: Entry C115G : reported scaled log2 fold change = ?
OUT: 1.06

IN: Entry K126H : reported scaled log2 fold change = ?
OUT: 0.0646

IN: Entry R8E : reported scaled log2 fold change = ?
OUT: 0.00393

IN: Entry V16G : reported scaled log2 fold change = ?
OUT: -0.0956

IN: Entry T164I : reported scaled log2 fold change = ?
OUT: -0.259

IN: Entry R31S : reported scaled log2 fold change = ?
OUT: 0.29
